ASSAY TARGET: recombinant human TFPI (tissue factor pathway inhibitor) (human, UniProt P10646 29-304)
TEST: cell-based or functional assay
The entries below come with measured FXa assay % of FXa alone, 2.5 nM Ab, 10 nM TFPI values attached.
State the value with its unit after it.

Below, each entry is followed by its recorded FXa assay % of FXa alone, 2.5 nM Ab, 10 nM TFPI result.
INSERT INTO measurements (binder, value_reported) VALUES
  ('clone 3131 (antibody, V domains shown) VH: EVQLVESGGGLVKPGGSLRLSCAASGFTFSSYAMSWVRQAPGKGLEWVSTITTGGSYTYYADSVQGRFTISRDNAKNSLYLQMNSLRAEDTAVYYCARQDGQFLMDYWGQGTLVTVSS VL: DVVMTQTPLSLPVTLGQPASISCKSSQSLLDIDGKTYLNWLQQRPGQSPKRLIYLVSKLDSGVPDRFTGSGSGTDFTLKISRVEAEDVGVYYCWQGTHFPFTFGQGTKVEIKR', '6.6%'),
  ('clone 3120 (antibody, V domains shown) VH: EVQLVESGGGLVKPGGSLRLSCAASGFTFSSYAMNWVRQAPGKGLEWVSTITTGGSYTYYADSVEGRFTISRDNAKNSLYLQMNSLRAEDTAVYYCARQDGYFLMDYWGQGTLVTVSS VL: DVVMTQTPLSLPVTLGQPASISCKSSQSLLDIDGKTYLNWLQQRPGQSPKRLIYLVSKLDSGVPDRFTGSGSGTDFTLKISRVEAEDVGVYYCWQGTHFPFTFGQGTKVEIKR', '6.4%');

Qu. Which FXa assay % of FXa alone, 2.5 nM Ab, 10 nM TFPI is reported for this binder? clone 4141 (antibody, V domains shown) VH: EVQLVESGGGLVKPGGSLRLSCAASGFTFSSYAMNWVRQAPGKGLEWVGTITTGGSHTYYADSVEGRFTISRDNAKNSLYLQMNSLRAEDTAVYYCARQDGYFLMDYWGQGTLVTVSS VL: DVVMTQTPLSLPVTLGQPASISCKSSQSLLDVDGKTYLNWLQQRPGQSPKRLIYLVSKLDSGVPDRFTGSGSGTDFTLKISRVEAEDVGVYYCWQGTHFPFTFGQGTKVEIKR
Ans. 6.4%

Qu. Form field: reported FXa assay % of FXa alone, 2.5 nM Ab, 10 nM TFPI of clone 4017 (antibody, V domains shown) VH: EVQLVESGGGLVKPGGSLRLSCAASGFTFSSYAMNWVRQAPGKGLEWVGTITTGGSYTYYADSVQGRFTISRDNAKNSLYLQMNSLRAEDTAVYYCARQDGYFLMDYWGQGTLVTVSS VL: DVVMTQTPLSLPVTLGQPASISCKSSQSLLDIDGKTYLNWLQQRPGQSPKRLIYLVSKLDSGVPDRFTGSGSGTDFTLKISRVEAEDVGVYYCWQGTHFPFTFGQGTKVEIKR
Ans. 6%

Qu. So what's the measured FXa assay % of FXa alone, 2.5 nM Ab, 10 nM TFPI for this one? clone 3115 (antibody, V domains shown) VH: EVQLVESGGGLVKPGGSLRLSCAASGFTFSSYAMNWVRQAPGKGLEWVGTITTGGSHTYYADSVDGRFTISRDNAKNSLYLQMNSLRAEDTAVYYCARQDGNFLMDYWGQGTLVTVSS VL: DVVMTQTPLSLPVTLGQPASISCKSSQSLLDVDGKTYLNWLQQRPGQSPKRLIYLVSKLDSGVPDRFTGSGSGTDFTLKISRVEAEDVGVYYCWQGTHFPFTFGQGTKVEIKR
Ans. 6.2%
